- experimental-target: human tau oligomers (human, UniProt P10636-6 2-383, limits assumed)
- Sequence (P10636 other isoform, or with tags, fused parts or gaps limits assumed): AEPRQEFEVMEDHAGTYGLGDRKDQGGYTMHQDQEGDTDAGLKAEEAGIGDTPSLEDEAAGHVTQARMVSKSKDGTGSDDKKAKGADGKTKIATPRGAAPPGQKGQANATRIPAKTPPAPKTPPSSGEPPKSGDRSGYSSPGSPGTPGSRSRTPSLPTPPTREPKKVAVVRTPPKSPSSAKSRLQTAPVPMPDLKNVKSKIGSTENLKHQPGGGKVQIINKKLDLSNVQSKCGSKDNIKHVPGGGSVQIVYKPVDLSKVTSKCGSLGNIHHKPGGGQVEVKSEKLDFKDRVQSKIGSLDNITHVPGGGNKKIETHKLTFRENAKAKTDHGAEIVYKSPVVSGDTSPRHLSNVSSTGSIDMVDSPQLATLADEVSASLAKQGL
- assay-procedure: cell-based or functional assay
measurement-type: LDH released by primary neurons with tau oligomers, antibody at 0.2 molar equivs

// solved cases for LDH released by primary neurons with tau oligomers, antibody at 0.2 molar equivs follow
| binder | reading |
| --- | --- |
| mouse 10C12 antibody (antibody, mouse IgG2a, V domains shown, also called m10C12) VH: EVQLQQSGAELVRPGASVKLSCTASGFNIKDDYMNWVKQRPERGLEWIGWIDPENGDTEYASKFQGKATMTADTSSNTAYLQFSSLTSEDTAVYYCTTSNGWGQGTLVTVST VL: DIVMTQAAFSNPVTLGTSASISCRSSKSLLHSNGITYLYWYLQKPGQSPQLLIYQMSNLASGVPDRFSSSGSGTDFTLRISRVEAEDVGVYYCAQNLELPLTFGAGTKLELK | 140 % of control |
| mouse 2D11 antibody (antibody, mouse IgG2a, V domains shown) VH: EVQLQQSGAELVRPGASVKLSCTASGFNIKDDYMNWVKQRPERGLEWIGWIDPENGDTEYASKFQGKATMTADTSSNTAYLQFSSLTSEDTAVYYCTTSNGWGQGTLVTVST VL: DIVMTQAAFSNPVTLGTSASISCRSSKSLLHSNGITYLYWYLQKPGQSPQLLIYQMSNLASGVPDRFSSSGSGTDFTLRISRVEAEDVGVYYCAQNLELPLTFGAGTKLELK | 177 % of control |

Let us move to another entry and its LDH released by primary neurons with tau oligomers, antibody at 0.2 molar equivs.
Value lookup for LDH released by primary neurons with tau oligomers, antibody at 0.2 molar equivs; key = mouse 12C4 antibody (antibody, mouse IgG2a, V domains shown, also called m12C4) VH: EVQLQQSGAELVRPGASVKLSCTASGFNIKDDYMNWVRQRPERGLEWIGWIDPENGDTAYASKFQGKATMTADTSSNTAYLQFSSLTSEDSAVYYCTTSNGWGQGTLVTVSA VL: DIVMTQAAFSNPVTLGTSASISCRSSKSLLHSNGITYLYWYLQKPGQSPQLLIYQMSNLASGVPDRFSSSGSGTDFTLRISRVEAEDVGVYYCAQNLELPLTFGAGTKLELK 153 % of control
